Tested on: Receptor-type tyrosine-protein kinase FLT3 (Homo sapiens), P36888 [D835Y]
assay_details: Irreversible inhibition of recombinant human FLT3 D835Y mutant (571 to 993 residues) expressed in baculovirus expression system at 1 uM preincubated for 5 to 30 mins followed by myelobasic protein addition measured after 120 mins using BODIPY-tagged compounds in presence of ATP by ADP-Glo assay relative to control
recorded_endpoint: inhibition (%)
Numeric only. Scale: %

[
  {
    "smi": "C=CS(=O)(=O)Nc1ccc2c(c1)/C(=C/c1[nH]c(C)c(C(=O)NCCNC(=O)COc3ccc(C4=C5C(C)=C(CC)C(C)=[N+]5[B-](F)(F)n5c(C)c(CC)c(C)c54)cc3)c1C)C(=O)N2",
    "target_or_system": "Receptor-type tyrosine-protein kinase FLT3 (Homo sapiens), P36888 [D835Y]",
    "inhibition / %": 89
  }
]

Task: Identify the reported inhibition for the following entry. `CCC1=C(C)C2=C(c3ccc(OCC(=O)NCCNC(=O)c4c(C)[nH]c(/C=C5\C(=O)Nc6ccc(NC(=O)C(F)(F)F)cc65)c4C)cc3)c3c(C)c(CC)c(C)n3[B-](F)(F)[N+]2=C1C`
Output: 34

Task: Identify the reported inhibition for the following entry. `CC1=CC(C)=[N+]2C1=Cc1ccc(CCC(=O)NCCNC(=O)c3c(C)[nH]c(/C=C4\C(=O)Nc5ccc(NC(=O)CCl)cc54)c3C)n1[B-]2(F)F`
Output: 55

Task: Identify the reported inhibition for the following entry. `CC(=O)Nc1ccc2c(c1)/C(=C/c1[nH]c(C)c(C(=O)NCCNC(=O)CCc3ccc4n3[B-](F)(F)[N+]3=C(C)C=C(C)C3=C4)c1C)C(=O)N2`
Output: 23

---

target_or_system: Receptor-type tyrosine-protein kinase FLT3 (Homo sapiens, UniProt P36888, ITD)
recorded_endpoint: pKd
In simple prose, pKd is minus the logarithm base ten of a concentration in moles per litre.

Task: Identify the reported pKd for the following entry. `C=CS(=O)(=O)Nc1ccc2c(c1)/C(=C/c1[nH]c(C)c(C(=O)NCCN(CC)CC)c1C)C(=O)N2`
Output: 8.24

---

assay_details: physchem
assay_setup: potassium phosphate buffer with reduced glutathione
Description: Half life of the compound in potassium phosphate buffer at 10 uM in presence of 100 fold excess reduced glutathione by HPLC analysis
recorded_endpoint: half-life at 10 µM (h)
Numeric only. Scale: h

Task: Identify the reported half-life at 10 µM for the following entry. `CCN(CC)CCNC(=O)c1c(C)[nH]c(/C=C2\C(=O)Nc3ccc(NC(=O)CCl)cc32)c1C`
Output: 3.63

---

target_or_system: Receptor-type tyrosine-protein kinase FLT3 (Homo sapiens)
assay_details: Binding affinity to auto-inhibited form of wild type human N-terminal GST-tagged FLT3 expressed in baculovirus expression
recorded_endpoint: pKd
In simple prose, pKd is minus the logarithm base ten of a concentration in moles per litre.

Task: Identify the reported pKd for the following entry. `C=CS(=O)(=O)Nc1ccc2c(c1)/C(=C/c1[nH]c(C)c(C(=O)NCCN(CC)CC)c1C)C(=O)N2`
Output: 7.19

---

target_or_system: Receptor-type tyrosine-protein kinase FLT3 (Homo sapiens, UniProt P36888, D835Y)
assay_details: Irreversible inhibition of recombinant human FLT3 D835Y mutant (571 to 993 residues) expressed in baculovirus expression system preincubated for 5 to 30 mins followed by myelobasic protein addition measured after 120 mins in presence of ATP by ADP-Glo assay
recorded_endpoint: pKi
In simple prose, pKi is minus the logarithm base ten of a concentration in moles per litre.

Task: Identify the reported pKi for the following entry. `C=CS(=O)(=O)Nc1ccc2c(c1)/C(=C/c1[nH]c(C)c(C(=O)NCCN(CC)CC)c1C)C(=O)N2`
Output: 8.70

---

target_or_system: Receptor-type tyrosine-protein kinase FLT3 (Homo sapiens, UniProt P36888)
Sequence (P36888 whole entry): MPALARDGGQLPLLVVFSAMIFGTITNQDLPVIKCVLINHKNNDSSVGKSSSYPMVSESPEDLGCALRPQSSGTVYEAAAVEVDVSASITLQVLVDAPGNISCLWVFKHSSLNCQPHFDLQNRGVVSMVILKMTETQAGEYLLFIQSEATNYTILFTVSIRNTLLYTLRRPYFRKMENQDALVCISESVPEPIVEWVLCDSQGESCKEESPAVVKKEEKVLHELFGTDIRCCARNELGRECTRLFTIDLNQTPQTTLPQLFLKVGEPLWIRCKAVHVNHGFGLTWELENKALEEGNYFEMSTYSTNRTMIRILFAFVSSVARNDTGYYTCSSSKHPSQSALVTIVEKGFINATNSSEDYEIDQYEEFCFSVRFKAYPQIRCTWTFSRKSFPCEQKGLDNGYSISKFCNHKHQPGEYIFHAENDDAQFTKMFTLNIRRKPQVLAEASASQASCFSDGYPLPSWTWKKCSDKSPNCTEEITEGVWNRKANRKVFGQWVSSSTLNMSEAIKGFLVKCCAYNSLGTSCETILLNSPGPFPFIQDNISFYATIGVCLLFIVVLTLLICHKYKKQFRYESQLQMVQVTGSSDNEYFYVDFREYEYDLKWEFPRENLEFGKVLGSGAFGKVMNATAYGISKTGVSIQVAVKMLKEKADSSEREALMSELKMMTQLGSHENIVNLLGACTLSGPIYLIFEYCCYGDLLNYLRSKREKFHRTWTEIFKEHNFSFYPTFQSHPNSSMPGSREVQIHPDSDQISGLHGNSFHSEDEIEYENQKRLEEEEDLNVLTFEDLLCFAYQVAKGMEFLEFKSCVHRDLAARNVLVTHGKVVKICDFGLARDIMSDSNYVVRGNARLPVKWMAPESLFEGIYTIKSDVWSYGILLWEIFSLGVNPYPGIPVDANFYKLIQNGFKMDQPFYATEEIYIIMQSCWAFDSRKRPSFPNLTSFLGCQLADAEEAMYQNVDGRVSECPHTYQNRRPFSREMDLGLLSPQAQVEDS
recorded_endpoint: Kd (nM)
Numeric only. Scale: nM

Task: Identify the reported Kd for the following entry. `C=CS(=O)(=O)Nc1ccc2c(c1)/C(=C/c1[nH]c(C)c(C(=O)NCCN(CC)CC)c1C)C(=O)N2`
Output: 2.3

---

assay_details: Toxicity in zebrafish embryo assessed as mortality at 10 uM measured 120 hpf by fluorescence microscopy
Set-up: species or system Danio rerio
assay_setup: in vivo
recorded_endpoint: Activity

As a guide, the following entries are already answered.
[
  {
    "smi": "CC(=O)Nc1ccc2c(c1)/C(=C/c1ccc[nH]1)C(=O)N2",
    "Activity": "Non-Toxic"
  },
  {
    "smi": "COc1cc(O)c2c(c1)[C@H]1O[C@@H]1C[C@H](O)[C@H](O)C(=O)/C=C\\C[C@H](C)OC2=O",
    "Activity": "Toxic"
  },
  {
    "smi": "CCN(CC)CCNC(=O)c1c(C)[nH]c(/C=C2\\C(=O)Nc3ccc(NC(=O)CCl)cc32)c1C",
    "Activity": "Non-Toxic"
  },
  {
    "smi": "O=C(CBr)Nc1ccc2c(c1)/C(=C/c1ccc[nH]1)C(=O)N2",
    "Activity": "Toxic"
  },
  {
    "smi": "c1ccc(Nc2nccc(Nc3cc(C4CC4)[nH]n3)n2)cc1",
    "Activity": "Toxic"
  },
  {
    "smi": "CC1(COc2ccc3c(c2)ncn3-c2ccc3cccc(N4CCC(N)CC4)c3n2)COC1",
    "Activity": "Toxic"
  }
]

Now examine the next entry.
Task: Identify the reported Activity for the following entry. `O=C(CF)Nc1ccc2c(c1)/C(=C/c1ccc[nH]1)C(=O)N2`
Output: Toxic
